study_system: PBP2x (Streptococcus pneumoniae)
Sequence (P59676 whole entry): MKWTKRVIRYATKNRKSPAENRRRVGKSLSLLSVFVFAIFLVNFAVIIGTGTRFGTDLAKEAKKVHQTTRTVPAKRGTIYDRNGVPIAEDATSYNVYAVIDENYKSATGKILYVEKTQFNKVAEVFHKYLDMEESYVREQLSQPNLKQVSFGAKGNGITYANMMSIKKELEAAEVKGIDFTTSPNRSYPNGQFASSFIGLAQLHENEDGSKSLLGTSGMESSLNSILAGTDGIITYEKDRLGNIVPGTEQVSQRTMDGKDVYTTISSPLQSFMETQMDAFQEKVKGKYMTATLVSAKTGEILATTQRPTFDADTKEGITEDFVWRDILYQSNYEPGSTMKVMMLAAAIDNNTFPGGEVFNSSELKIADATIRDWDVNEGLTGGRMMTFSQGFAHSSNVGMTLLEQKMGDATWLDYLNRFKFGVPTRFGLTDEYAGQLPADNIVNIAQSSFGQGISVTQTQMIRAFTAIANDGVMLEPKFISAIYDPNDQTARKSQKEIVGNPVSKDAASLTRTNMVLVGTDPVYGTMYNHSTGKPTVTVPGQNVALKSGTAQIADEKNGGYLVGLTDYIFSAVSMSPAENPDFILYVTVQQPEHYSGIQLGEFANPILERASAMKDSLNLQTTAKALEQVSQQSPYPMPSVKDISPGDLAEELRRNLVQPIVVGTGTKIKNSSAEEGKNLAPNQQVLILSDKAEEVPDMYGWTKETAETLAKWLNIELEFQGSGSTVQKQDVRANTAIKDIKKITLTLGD
assay_explanation: cell-based
Format: binding
cond: strain IU1945, average ± SEM of two experiments
reported_metric: pIC50
Friendly reminder that pIC50 comes from taking -log10 of the concentration in mol/L.

stdin: Supply pIC50 measured with PBP2x (Streptococcus pneumoniae) for CC1(C)S[C@@H]2[C@H](NC(=O)C(C(=O)O)c3ccccc3)C(=O)N2[C@H]1C(=O)O (stereo partly shown) .
stdout: 6.02

stdin: Answer with pIC50 of CO[C@@]1(NC(=O)C2SC(=C(C(N)=O)C(=O)O)S2)C(=O)N2C(C(=O)O)=C(CSc3nnnn3C)CS[C@@H]21 (stereo partly shown) measured for PBP2x (Streptococcus pneumoniae).
stdout: 4.84

stdin: With PBP2x (Streptococcus pneumoniae) as the test system, provide measured pIC50 for this compound: `C=CC1=C(C(=O)O)N2C(=O)[C@@H](NC(=O)/C(=N\OCC(=O)O)c3csc(N)n3)[C@H]2SC1`
stdout: 6.47

stdin: Write down the reported pIC50 (system: PBP2x (Streptococcus pneumoniae)) of `Cc1onc(-c2c(Cl)cccc2Cl)c1C(=O)N[C@@H]1C(=O)N2[C@@H]1SC(C)(C)[C@@H]2C(=O)O`
stdout: 7.38

stdin: For PBP2x (Streptococcus pneumoniae), give pIC50 of the listed compound: `CC1(C)S[C@@H]2[C@H](NC(=O)[C@H](C(=O)O)c3ccsc3)C(=O)N2[C@H]1C(=O)O`
stdout: 6.60

stdin: GET pIC50 | system: PBP2x (Streptococcus pneumoniae) | item: `CO/N=C(\C(=O)N[C@@H]1C(=O)N2C(C(=O)[O-])=C(C[n+]3cccc4c3CCC4)CS[C@H]12)c1csc(N)n1`
stdout: 8.70

stdin: For PBP2x (Streptococcus pneumoniae), give pIC50 of the listed compound: `N[C@@H](C(=O)N[C@@H]1C(=O)N2C(C(=O)O)=C(Cl)CS[C@H]12)c1ccccc1`
stdout: 5.43

stdin: Answer briefly: pIC50 recorded on PBP2x (Streptococcus pneumoniae) for `CCOc1ccc2ccccc2c1C(=O)N[C@@H]1C(=O)N2[C@@H]1SC(C)(C)[C@@H]2C(=O)O`
stdout: 7.85

stdin: Please look at `COCC1=C(C(=O)O)N2C(=O)[C@@H](NC(=O)/C(=N\OC)c3csc(N)n3)[C@H]2SC1` and tell me its recorded pIC50 on PBP2x (Streptococcus pneumoniae).
stdout: 7.39

stdin: Supply pIC50 measured with PBP2x (Streptococcus pneumoniae) for `Cc1onc(-c2ccccc2Cl)c1C(=O)N[C@@H]1C(=O)N2[C@@H]1SC(C)(C)[C@@H]2C(=O)O` .
stdout: 6.92

stdin: Report pIC50 from PBP2x (Streptococcus pneumoniae) testing of `C[C@@H](O)[C@H]1C(=O)N2C(C(=O)O)=C(SCCN=CN)C[C@H]12`
stdout: 7.32

stdin: State recorded pIC50 with PBP2x (Streptococcus pneumoniae), entry `C[C@@H](O)[C@H]1C(=O)N2C(C(=O)O)=C(S[C@@H]3CN[C@H](C(=O)Nc4cccc(C(=O)O)c4)C3)[C@H](C)[C@H]12` , no comment.
stdout: 6.12

stdin: Given `CC1(C)S[C@@H]2[C@H](NC(=O)[C@H](NC(=O)N3CCNC3=O)c3ccccc3)C(=O)N2[C@H]1C(=O)O` , report its pIC50 on PBP2x (Streptococcus pneumoniae).
stdout: 7.09

----------
study_system: PBP2a (Streptococcus pneumoniae)
assay_explanation: cell-based
Assay type: binding
cond: Δpbp1b mutant strain, average ± SEM
reported_metric: pIC50
Keep in mind that pIC50 stands for -log10 of concentration in molar terms.

stdin: Output pIC50 of COCC1=C(C(=O)O)N2C(=O)[C@@H](NC(=O)/C(=N\OC)c3csc(N)n3)[C@H]2SC1 [Cefpodoxime, cefpodoxime]
stdout: 6.75

stdin: Write down pIC50 measured for item Cc1onc(-c2c(F)cccc2Cl)c1C(=O)N[C@@H]1C(=O)N2[C@@H]1SC(C)(C)[C@@H]2C(=O)O [Flucloxacillin, flucloxacillin]
stdout: 4.29

stdin: Please list pIC50 recorded for the compound C[C@@H](O)[C@H]1C(=O)N2C(C(=O)O)=C(S[C@@H]3CN[C@H](C(=O)Nc4cccc(C(=O)O)c4)C3)[C@H](C)[C@H]12 [Ertapenem, ertapenem]
stdout: 5.17

----------
study_system: PBP2a (Streptococcus pneumoniae, UniProt Q8DNB6)
Sequence (Q8DNB6 whole entry): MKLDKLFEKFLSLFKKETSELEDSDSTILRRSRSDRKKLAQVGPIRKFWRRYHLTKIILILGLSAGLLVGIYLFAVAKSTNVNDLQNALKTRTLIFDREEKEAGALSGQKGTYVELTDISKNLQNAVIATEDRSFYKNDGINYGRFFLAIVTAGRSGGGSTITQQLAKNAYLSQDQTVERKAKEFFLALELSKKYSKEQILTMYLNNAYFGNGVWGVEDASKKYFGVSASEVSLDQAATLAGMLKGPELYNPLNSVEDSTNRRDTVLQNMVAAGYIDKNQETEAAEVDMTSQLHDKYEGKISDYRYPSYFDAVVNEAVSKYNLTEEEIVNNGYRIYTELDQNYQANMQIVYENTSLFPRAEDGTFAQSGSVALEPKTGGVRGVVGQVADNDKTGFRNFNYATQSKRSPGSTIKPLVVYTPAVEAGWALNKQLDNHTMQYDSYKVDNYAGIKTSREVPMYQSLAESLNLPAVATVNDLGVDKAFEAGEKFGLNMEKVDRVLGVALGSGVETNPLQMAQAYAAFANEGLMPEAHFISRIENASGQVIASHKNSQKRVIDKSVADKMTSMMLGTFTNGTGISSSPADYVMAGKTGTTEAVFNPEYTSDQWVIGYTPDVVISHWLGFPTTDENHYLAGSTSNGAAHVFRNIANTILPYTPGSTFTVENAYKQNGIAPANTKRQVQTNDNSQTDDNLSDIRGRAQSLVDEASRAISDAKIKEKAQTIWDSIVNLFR
assay_explanation: cell-based
Assay type: binding
cond: strain IU1945, average ± SEM of two experiments
Hi! Could you tag entries with IC50 below 5 µM as yes, and those at or above as no? Much appreciated.

stdin: Threshold test, IC50 < 5 µM: Cc1onc(-c2c(F)cccc2Cl)c1C(=O)N[C@@H]1C(=O)N2[C@@H]1SC(C)(C)[C@@H]2C(=O)O [Flucloxacillin, flucloxacillin]
stdout: no

stdin: Decide: IC50 of CO[C@@]1(NC(=O)C2SC(=C(C(N)=O)C(=O)O)S2)C(=O)N2C(C(=O)O)=C(CSc3nnnn3C)CS[C@@H]21 (stereo partly drawn) [Cefotetan, cefotetan] strictly below 5 µM?
stdout: no

stdin: For this molecule, is IC50 lower than 5 µM? CC1(C)S[C@@H]2[C@H](NC(=O)[C@H](NC(=O)N3CCNC3=O)c3ccccc3)C(=O)N2[C@H]1C(=O)O [Azlocillin, azlocillin]
stdout: yes

stdin: Find out if reported IC50 for C=CC1=C(C(=O)O)N2C(=O)[C@@H](NC(=O)/C(=N\OCC(=O)O)c3csc(N)n3)[C@H]2SC1 [Cefixime, cefixime] is less than 5 µM
stdout: yes

stdin: Answer whether the molecule COCC1=C(C(=O)O)N2C(=O)[C@@H](NC(=O)/C(=N\OC)c3csc(N)n3)[C@H]2SC1 [Cefpodoxime, cefpodoxime] has IC50 strictly less than 5 µM
stdout: yes

stdin: IC50 strictly < 5 µM for this molecule? C[C@@H](O)[C@H]1C(=O)N2C(C(=O)[O-])=C(SC3Cn4cnc[n+]4C3)[C@H](C)[C@H]12 (stereo partly drawn) [Biapenem, biapenem]
stdout: yes

----------
study_system: UniProt Q8DR59
Sequence (Q8DR59 whole entry): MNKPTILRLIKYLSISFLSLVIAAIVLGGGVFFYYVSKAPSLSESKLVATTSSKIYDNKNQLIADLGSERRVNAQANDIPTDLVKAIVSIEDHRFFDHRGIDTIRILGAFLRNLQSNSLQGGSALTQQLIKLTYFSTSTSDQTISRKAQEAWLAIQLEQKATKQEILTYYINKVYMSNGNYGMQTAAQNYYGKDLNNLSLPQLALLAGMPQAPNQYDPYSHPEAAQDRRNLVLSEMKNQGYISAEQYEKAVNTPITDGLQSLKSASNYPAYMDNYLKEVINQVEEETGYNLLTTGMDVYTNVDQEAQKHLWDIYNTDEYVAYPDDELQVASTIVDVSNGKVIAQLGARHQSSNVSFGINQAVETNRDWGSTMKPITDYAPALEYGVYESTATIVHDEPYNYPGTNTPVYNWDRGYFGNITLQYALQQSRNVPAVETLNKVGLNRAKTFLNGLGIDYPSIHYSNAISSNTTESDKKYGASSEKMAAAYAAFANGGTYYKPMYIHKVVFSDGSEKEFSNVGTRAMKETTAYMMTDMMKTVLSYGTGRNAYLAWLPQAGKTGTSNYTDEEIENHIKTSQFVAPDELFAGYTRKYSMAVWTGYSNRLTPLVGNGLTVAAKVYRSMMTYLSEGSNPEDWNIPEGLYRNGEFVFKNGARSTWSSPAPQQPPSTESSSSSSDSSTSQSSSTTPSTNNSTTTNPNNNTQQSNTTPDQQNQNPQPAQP
assay_explanation: cell-based
Type: binding
cond: IC50 PBPla, strain IU1945; average ± SEM of two experiments
reported_metric: IC50 (nM)
Your answer is read as nM, so omit the unit and give the number.

stdin: Look up UniProt Q8DR59 data: IC50 of CC1(C)S[C@@H]2[C@H](NC(=O)[C@H](C(=O)O)c3ccsc3)C(=O)N2[C@H]1C(=O)O [Ticarcillin, ticarcillin] , then report it.
stdout: 827

stdin: Would you please give the reported IC50 of CC1(C)S[C@@H]2[C@H](NC(=O)[C@H](NC(=O)N3CCNC3=O)c3ccccc3)C(=O)N2[C@H]1C(=O)O [Azlocillin, azlocillin] with UniProt Q8DR59?
stdout: 1520

stdin: Report value: IC50, system: UniProt Q8DR59, compound: CC1(C)S[C@@H]2[C@H](NC(=O)C(C(=O)O)c3ccccc3)C(=O)N2[C@H]1C(=O)O (stereo partly drawn) [Carbenicillin, carbenicillin]
stdout: 1110

stdin: Look up and report measured IC50 (UniProt Q8DR59) for the following compound: Cc1onc(-c2c(F)cccc2Cl)c1C(=O)N[C@@H]1C(=O)N2[C@@H]1SC(C)(C)[C@@H]2C(=O)O [Flucloxacillin, flucloxacillin]
stdout: 12400

stdin: Return reported IC50 for target or system UniProt Q8DR59, item Cc1onc(-c2c(Cl)cccc2Cl)c1C(=O)N[C@@H]1C(=O)N2[C@@H]1SC(C)(C)[C@@H]2C(=O)O [Dicloxacillin, dicloxacillin] .
stdout: 385

stdin: Determine reported IC50 for C=CC1=C(C(=O)O)N2C(=O)[C@@H](NC(=O)/C(=N\OCC(=O)O)c3csc(N)n3)[C@H]2SC1 [Cefixime, cefixime] ; test system: UniProt Q8DR59.
stdout: 32300

stdin: For UniProt Q8DR59, give the measured IC50 of the entry N[C@@H](C(=O)N[C@@H]1C(=O)N2C(C(=O)O)=C(Cl)CS[C@H]12)c1ccccc1 [Cefaclor, cefaclor]
stdout: 3600

stdin: Fill: IC50 (UniProt Q8DR59) for this compound COCC1=C(C(=O)O)N2C(=O)[C@@H](NC(=O)/C(=N\OC)c3csc(N)n3)[C@H]2SC1 [Cefpodoxime, cefpodoxime]
stdout: 1920

stdin: Recall the reported IC50 of C[C@@H](O)[C@H]1C(=O)N2C(C(=O)O)=C(SCCN=CN)C[C@H]12 [Imipenem, imipenem] on UniProt Q8DR59 and write it down.
stdout: 27

Entry source: paper PMC9115913
